# Organism: Homo sapiens
# Assay: Inhibition of beta amyloid-ABAD interaction by ELISA at 1 mM
The source made the active and inactive calls. The calls are words filed in the database; no cut-off is given here.
Experimental Endpoint: Activity

[
  {
    "Mol Smiles": "O=C(Nc1nc2ccc(OC(F)(F)F)cc2s1)Nc1ccc(O)cc1O",
    "Activity": "Active"
  },
  {
    "Mol Smiles": "O=C(Nc1nc2ccc(F)cc2s1)Nc1ccccc1O",
    "Activity": "Active"
  },
  {
    "Mol Smiles": "COc1ccc2nc(NC(=O)NOc3ccccc3)sc2c1",
    "Activity": "Active"
  },
  {
    "Mol Smiles": "O=C(Nc1nc2ccc(Cl)cc2s1)Nc1ccc(O)cc1O",
    "Activity": "Active"
  },
  {
    "Mol Smiles": "COC(=O)c1cc(C(=O)O)ccc1NC(=O)Nc1nc2ccc(Cl)cc2s1",
    "Activity": "Active"
  }
]

The reported value for COc1ccc2nc(NC(=O)Nc3ccc(N4CCOCC4)cc3)sc2c1 in terms of Activity is Active

Activity recorded for this compound, O=C(Nc1cccnc1)Nc1nc2ccc(Cl)cc2s1 , is Active

* * *

Measured logP values are reported for all entries that follow.
# Assay: Partition coefficient, log P of the compound
# Format: physicochemical
# Condition Parameters: octanol/water
Lab note: write the figure by itself, no unit.

[
  {
    "Mol Smiles": "COC(=O)c1cc(NC(=O)Nc2nc3ccc(F)cc3s2)ccc1O",
    "Experimental Endpoint": "logP",
    "Measured Number": 1.15
  }
]

logP in this record for COC(=O)c1cc(NC(=O)Nc2nc3ccc(Cl)cc3s2)ccc1O : 1.34
